protocol: Particle size distribution and specific surface area (LS 200, Small Volume Module, Fraunhofer optical model)
Format: physicochemical
condition-set: calculations from 0.375 μm to 2000 μm
quantity-kind: Mean particle size (volume statistics, arithmetic) (μm)
Answer format: numeric, μm implied, no suffix.

Observe how each entry below is paired with its result.
* O=C(O)CCNC(=O)c1ccc(/N=N/c2ccc(O)c(C(=O)O)c2)cc1 | 10.85
* O=C([O-])CCNC(=O)c1ccc(/N=N/c2ccc(O)c(C(=O)[O-])c2)cc1.[Na+].[Na+] [Sample 1] | 6.967
* O=C([O-])CCNC(=O)c1ccc(/N=N/c2ccc(O)c(C(=O)[O-])c2)cc1.[Na+].[Na+] [Sample 2] | 6.503
* O=C([O-])CCNC(=O)c1ccc(/N=N/c2ccc(O)c(C(=O)[O-])c2)cc1.[Na+].[Na+] [Sample 4] | 22.93

Shifting focus to the molecule that follows.
Name the reported Mean particle size (volume statistics, arithmetic) value associated with the molecule O=C([O-])CCNC(=O)c1ccc(/N=N/c2ccc(O)c(C(=O)[O-])c2)cc1.[Na+].[Na+] [Sample 3]
8.399

====

protocol: Particle size distribution and specific surface area (LS 200, Small Volume Module, Fraunhofer optical model)
Assay type: physicochemical
condition-set: 25% of volume below this size
quantity-kind: Particle size, % < 25 (μm)
Answer format: numeric, μm implied, no suffix.

• O=C(O)CCNC(=O)c1ccc(/N=N/c2ccc(O)c(C(=O)O)c2)cc1 [Feed Powder Sample A (#35.$01)] = 4.253
• O=C([O-])CCNC(=O)c1ccc(/N=N/c2ccc(O)c(C(=O)[O-])c2)cc1.[Na+].[Na+] [Sample 3] = 3.385
• O=C([O-])CCNC(=O)c1ccc(/N=N/c2ccc(O)c(C(=O)[O-])c2)cc1.[Na+].[Na+] [Sample 2] = 2.586
• O=C([O-])CCNC(=O)c1ccc(/N=N/c2ccc(O)c(C(=O)[O-])c2)cc1.[Na+].[Na+] [Sample 4] = 8.660

Shifting focus to the compound that follows.
Name the reported Particle size, % < 25 value associated with the compound O=C([O-])CCNC(=O)c1ccc(/N=N/c2ccc(O)c(C(=O)[O-])c2)cc1.[Na+].[Na+] [Sample 1]
2.827

====

protocol: Particle size distribution and specific surface area (LS 200, Small Volume Module, Fraunhofer optical model)
Assay type: physicochemical
condition-set: Particle Diameter (Lower) 0.375 μm
Respond with Met for Diff. Volume % values of 2% and above, Not met for values below.

Worked examples follow.
• O=C([O-])CCNC(=O)c1ccc(/N=N/c2ccc(O)c(C(=O)[O-])c2)cc1.[Na+].[Na+] [Sample 2] = Met
• O=C([O-])CCNC(=O)c1ccc(/N=N/c2ccc(O)c(C(=O)[O-])c2)cc1.[Na+].[Na+] [Sample 1] = Met
• O=C([O-])CCNC(=O)c1ccc(/N=N/c2ccc(O)c(C(=O)[O-])c2)cc1.[Na+].[Na+] [Sample 3] = Met
• O=C(O)CCNC(=O)c1ccc(/N=N/c2ccc(O)c(C(=O)O)c2)cc1 [Feed Powder Sample B (#41.$02)] = Not met
• O=C(O)CCNC(=O)c1ccc(/N=N/c2ccc(O)c(C(=O)O)c2)cc1 [Feed Powder Sample A (#35.$01)] = Not met

# next molecule below
Is Diff. Volume % for O=C([O-])CCNC(=O)c1ccc(/N=N/c2ccc(O)c(C(=O)[O-])c2)cc1.[Na+].[Na+] [Sample 4] at or above 2%?
Not met

====

protocol: Particle size distribution and specific surface area (LS 200, Small Volume Module, Fraunhofer optical model)
Assay type: physicochemical
condition-set: Particle Diameter (Lower) 2.011 μm
Respond with 1 (yes) for Cum. < Volume % values of 10% and above, 0 (no) for values below.

Worked examples follow.
- O=C([O-])CCNC(=O)c1ccc(/N=N/c2ccc(O)c(C(=O)[O-])c2)cc1.[Na+].[Na+] [Sample 2]: 1 (yes)
- O=C(O)CCNC(=O)c1ccc(/N=N/c2ccc(O)c(C(=O)O)c2)cc1 [Feed Powder Sample B (#41.$02)]: 0 (no)
- O=C([O-])CCNC(=O)c1ccc(/N=N/c2ccc(O)c(C(=O)[O-])c2)cc1.[Na+].[Na+] [Sample 4]: 0 (no)
- O=C(O)CCNC(=O)c1ccc(/N=N/c2ccc(O)c(C(=O)O)c2)cc1 [Feed Powder Sample C (#53.$02)]: 1 (yes)
- O=C([O-])CCNC(=O)c1ccc(/N=N/c2ccc(O)c(C(=O)[O-])c2)cc1.[Na+].[Na+] [Sample 3]: 1 (yes)

Is Cum. < Volume % for O=C([O-])CCNC(=O)c1ccc(/N=N/c2ccc(O)c(C(=O)[O-])c2)cc1.[Na+].[Na+] [Sample 1] at or above 10%?
1 (yes)

Is Cum. < Volume % for O=C(O)CCNC(=O)c1ccc(/N=N/c2ccc(O)c(C(=O)O)c2)cc1 [Feed Powder Sample A (#35.$01)] at or above 10%?
1 (yes)

====

Recorded Particle size, % < 75 by entry
protocol: Particle size distribution and specific surface area (LS 200, Small Volume Module, Fraunhofer optical model)
Assay type: physicochemical
condition-set: 75% of volume below this size
Text: FIG. 2 depicts and the data below tabulate for Sample 1 the arithmetic statistics describing surface area, particle size, and cumulative volume characteristics for one lot of drug substance (feed material). The particle size distribution for this lot is depicted in FIG. 2. Table 11 A-D tabulates the arithmetic statistics describing surface area, particle size, and cumulative volume characteristics for three lots of drug substance (feed material). […]
Answer format: numeric, μm implied, no suffix.

Observe how each entry below is paired with its result.
• O=C(O)CCNC(=O)c1ccc(/N=N/c2ccc(O)c(C(=O)O)c2)cc1 = 13.88
• O=C([O-])CCNC(=O)c1ccc(/N=N/c2ccc(O)c(C(=O)[O-])c2)cc1.[Na+].[Na+] [Sample 2] = 8.715
• O=C([O-])CCNC(=O)c1ccc(/N=N/c2ccc(O)c(C(=O)[O-])c2)cc1.[Na+].[Na+] [Sample 1] = 9.624

Name the reported Particle size, % < 75 value associated with the compound O=C([O-])CCNC(=O)c1ccc(/N=N/c2ccc(O)c(C(=O)[O-])c2)cc1.[Na+].[Na+] [Sample 3]
11.50

Name the reported Particle size, % < 75 value associated with the compound O=C([O-])CCNC(=O)c1ccc(/N=N/c2ccc(O)c(C(=O)[O-])c2)cc1.[Na+].[Na+] [Sample 4]
30.86

====

Recorded Cum. < Volume % by entry
protocol: Particle size distribution and specific surface area (LS 200, Small Volume Module, Fraunhofer optical model)
Type: physicochemical
condition-set: Particle Diameter (Lower) 3.519 μm
Excerpt: FIG. 2 depicts and the data below tabulate for Sample 1 the arithmetic statistics describing surface area, particle size, and cumulative volume characteristics for one lot of drug substance (feed material). The particle size distribution for this lot is depicted in FIG. 2. Table 11 A-D tabulates the arithmetic statistics describing surface area, particle size, and cumulative volume characteristics for three lots of drug substance (feed material). […]
Answer format: numeric, % implied, no suffix.

Observe how each entry below is paired with its result.
- O=C([O-])CCNC(=O)c1ccc(/N=N/c2ccc(O)c(C(=O)[O-])c2)cc1.[Na+].[Na+] [Sample 3]: 26.1
- O=C([O-])CCNC(=O)c1ccc(/N=N/c2ccc(O)c(C(=O)[O-])c2)cc1.[Na+].[Na+] [Sample 4]: 8.99

Name the reported Cum. < Volume % value associated with the molecule O=C(O)CCNC(=O)c1ccc(/N=N/c2ccc(O)c(C(=O)O)c2)cc1 [Feed Powder Sample C (#53.$02)]
23.7

====

Recorded Diff. Volume % by entry
protocol: Particle size distribution and specific surface area (LS 200, Small Volume Module, Fraunhofer optical model)
Assay type: physicochemical
condition-set: Particle Diameter (Lower) 57.77 μm
Answer format: numeric, % implied, no suffix.

Observe how each entry below is paired with its result.
- O=C(O)CCNC(=O)c1ccc(/N=N/c2ccc(O)c(C(=O)O)c2)cc1 [Feed Powder Sample C (#53.$02)]: 0.013
- O=C(O)CCNC(=O)c1ccc(/N=N/c2ccc(O)c(C(=O)O)c2)cc1 [Feed Powder Sample A (#35.$01)]: 0.75
- O=C([O-])CCNC(=O)c1ccc(/N=N/c2ccc(O)c(C(=O)[O-])c2)cc1.[Na+].[Na+] [Sample 4]: 3.43
- O=C([O-])CCNC(=O)c1ccc(/N=N/c2ccc(O)c(C(=O)[O-])c2)cc1.[Na+].[Na+] [Sample 1]: 0
- O=C([O-])CCNC(=O)c1ccc(/N=N/c2ccc(O)c(C(=O)[O-])c2)cc1.[Na+].[Na+] [Sample 2]: 0
- O=C([O-])CCNC(=O)c1ccc(/N=N/c2ccc(O)c(C(=O)[O-])c2)cc1.[Na+].[Na+] [Sample 3]: 0.0029

Shifting focus to the compound that follows.
Name the reported Diff. Volume % value associated with the compound O=C(O)CCNC(=O)c1ccc(/N=N/c2ccc(O)c(C(=O)O)c2)cc1 [Feed Powder Sample B (#41.$02)]
7.10
